study_system: human CDH6 with EC3 removed, on HEK293T cells (HEK293T-hCDH6-EC3 deletion) (human) (UniProt P55285)
assay_explanation: FACS, HEK293T-hCDH6-EC3 deletion cells
assay_metric: Max MFI (MFI)

binder	value
CHI-CDH6-4 (antibody, human IgG1, kappa, V domains shown) VH: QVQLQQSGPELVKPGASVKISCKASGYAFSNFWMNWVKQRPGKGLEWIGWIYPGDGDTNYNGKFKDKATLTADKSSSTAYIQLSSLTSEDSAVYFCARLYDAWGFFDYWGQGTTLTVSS VL: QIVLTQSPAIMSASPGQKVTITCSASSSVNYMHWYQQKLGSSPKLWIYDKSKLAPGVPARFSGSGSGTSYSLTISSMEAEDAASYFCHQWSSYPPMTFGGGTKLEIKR	15100
